testProtocol: Toxicity liver stage against HepG2, at 10uM
Format: cell-based
Set-up: test concentration 10 uM, cell line HepG2-A16-CD81EGFP
conditionDescription: human, HepG2-A16-CD81EGFP cells; read-out: INHIBITION
Give measured cytotoxicity at 10 µM for each item. Keep answers brief.
Numbers only; they are read as %.

The compound listed as COc1ccc(-c2cc(C(=O)N3N=C(C)CC3(O)C(F)(F)F)[nH]n2)cc1 (configuration not stated) shows cytotoxicity at 10 µM equal to 1.36

The compound listed as CC(C)Cc1noc(CN2CCC(C(=O)NCC3CCCO3)CC2)n1 (configuration not stated) shows cytotoxicity at 10 µM equal to 3.13

The compound listed as `Cc1nc2sc(C(=O)N3CCNC(=O)C3)c(C)c2c(=O)[nH]1` shows cytotoxicity at 10 µM equal to 4.13

The compound listed as `CN(Cc1cc[nH]n1)C(=O)c1cn(Cc2ccccc2Cl)nn1` shows cytotoxicity at 10 µM equal to 7.59

The compound listed as Cc1nnc(NCC(c2ccco2)N2CCCCC2)c(C#N)c1C (configuration not stated) shows cytotoxicity at 10 µM equal to -5.23

The compound listed as CCC(=O)N1CCC(c2nc3c(c(NC)n2)CN(C)CC3)C1 (configuration not stated) shows cytotoxicity at 10 µM equal to -3.74

The compound listed as COCCc1noc(CN(C)C(=O)C2COc3ccccc3C2)n1 (configuration not stated) shows cytotoxicity at 10 µM equal to 8.63

The compound listed as Cc1ccccc1CNCC(O)c1ccc(OC(C)C)cc1 (configuration not stated) shows cytotoxicity at 10 µM equal to -6.17

The compound listed as `CN(C1CCN(c2ccccn2)CC1)S(=O)(=O)c1ccc(F)cc1` shows cytotoxicity at 10 µM equal to 11.2

The compound listed as `O=C(NCCOc1ccc2c(c1)OCO2)N1CCC1` shows cytotoxicity at 10 µM equal to -6.24

The compound listed as `COC(=O)c1ccc(C)c(N2CCNC2=O)c1` shows cytotoxicity at 10 µM equal to 9.81

The compound listed as `CCn1cc(Br)c(C(=O)NCc2ccc(F)cc2)n1` shows cytotoxicity at 10 µM equal to -3.01

----------
Give measured cytotoxicity at 10 µM for each item. Keep answers brief.
testProtocol: Toxicity liver stage against HepG2, at 10uM
Type: cell-based
Design: test concentration 10 uM, cell line HepG2-A16-CD81EGFP
conditionDescription: human, HepG2-A16-CD81EGFP cells; read-out: INHIBITION
Numbers only; they are read as %.

The molecule listed as CN1CCN(Cc2cscn2)CC(C(=O)N(C)C)C1 (configuration not stated) shows cytotoxicity at 10 µM equal to -5.61

The molecule listed as Cc1cc(-c2cc(F)ccc2C(=O)O)nc(C2CCCN(C)C2)n1 (configuration not stated) shows cytotoxicity at 10 µM equal to -11.4

The molecule listed as `CC(C)(C)c1c[nH]c([C@@H]2COCCN2C2CCNCC2)n1` shows cytotoxicity at 10 µM equal to 6.07

The molecule listed as `CN(Cc1cc(-c2ccccc2)no1)Cc1nccn1C` shows cytotoxicity at 10 µM equal to -2.27

The molecule listed as `FC(F)(F)c1cccc(CN2CCOC[C@H](Oc3cccnc3)C2)c1` shows cytotoxicity at 10 µM equal to 7.74

The molecule listed as `CCS(=O)(=O)c1ccc(NCc2csc(C(C)C)n2)cc1` shows cytotoxicity at 10 µM equal to 8.73

The molecule listed as COc1ccc(-c2nccc(C3CCCN3C)n2)cc1 (configuration not stated) shows cytotoxicity at 10 µM equal to 9.97

The molecule listed as `CCOc1ccc(NC(=O)c2cc(C)c(C)o2)cc1CO` shows cytotoxicity at 10 µM equal to 3.78

The molecule listed as `O=C(NCc1ccco1)c1cc(N2CC[C@@H](O)C2)ccn1` shows cytotoxicity at 10 µM equal to -2.93

The molecule listed as `CCOC(=O)c1cnn(C2CCN(C(=O)CC(C)(C)C)CC2)c1N` shows cytotoxicity at 10 µM equal to 6.26

The molecule listed as CN1CCC(NC(=O)Nc2ccc(Cl)c(F)c2)C1=O (configuration not stated) shows cytotoxicity at 10 µM equal to -136

The molecule listed as Cc1n[nH]c(C)c1C1COCCN1c1ncnc2sccc12 (configuration not stated) shows cytotoxicity at 10 µM equal to 23.1
